The compounds below have reported MIC for Staphylococcus epidermidis.
Record the value in µM, omitting the unit from your answer.

Examples with answers:
CC[C@H](C)[C@H](NC(=O)[C@H](CCCN=C(N)N)NC(=O)[C@H](CC(C)C)NC(=O)[C@H](CCC(N)=O)NC(=O)[C@@H](N)C(C)C)C(=O)N[C@@H](CCCN=C(N)N)C(=O)N[C@H](C(=O)N[C@@H](CCCN=C(N)N)C(=O)N[C@H](C(=O)N[C@H](C(=O)N[C@@H](CCCN=C(N)N)C(=O)N[C@@H](CCCCN)C(N)=O)[C@@H](C)CC)C(C)C)C(C)C | 1.04
CC[C@H](C)[C@H](NC(=O)[C@H](CCCCN)NC(=O)[C@H](Cc1c[nH]c2ccccc12)NC(=O)[C@H](CCCNC(=N)N)NC(=O)[C@@H](N)CCCNC(=N)N)C(=O)N[C@H](C(=O)N[C@H](C(=O)N[C@H](C(=O)N[C@@H](CCCNC(=N)N)C(=O)N[C@@H](Cc1c[nH]c2ccccc12)C(=O)N[C@@H](CCCNC(=N)N)C(=O)N[C@@H](CCCNC(=N)N)C(=O)O)[C@@H](C)CC)C(C)C)C(C)C | 0.3

Proceed to the following item.
Problem: Observed MIC on Staphylococcus epidermidis for CC[C@H](C)[C@H](NC(=O)[C@@H](NC(=O)[C@@H](NC(=O)[C@H](CCCN=C(N)N)NC(=O)[C@H](CCCN=C(N)N)NC(=O)[C@H](C)NC(=O)[C@H](CC(C)C)NC(=O)[C@@H](N)CCCN=C(N)N)C(C)C)C(C)C)C(=O)N[C@@H](CCCN=C(N)N)C(=O)N[C@H](C(=O)N[C@@H](C)C(=O)N[C@@H](CCCN=C(N)N)C(N)=O)C(C)C , please.
Solution: 10.9
